The reported numbers originate from patent US20220041641A1.

Reported values of IC50 for individual entries
system-name: CutC from Proteus mirabilis (Proteus mirabilis, UniProt B4EYG1)
Sequence (B4EYG1 entry or part of it): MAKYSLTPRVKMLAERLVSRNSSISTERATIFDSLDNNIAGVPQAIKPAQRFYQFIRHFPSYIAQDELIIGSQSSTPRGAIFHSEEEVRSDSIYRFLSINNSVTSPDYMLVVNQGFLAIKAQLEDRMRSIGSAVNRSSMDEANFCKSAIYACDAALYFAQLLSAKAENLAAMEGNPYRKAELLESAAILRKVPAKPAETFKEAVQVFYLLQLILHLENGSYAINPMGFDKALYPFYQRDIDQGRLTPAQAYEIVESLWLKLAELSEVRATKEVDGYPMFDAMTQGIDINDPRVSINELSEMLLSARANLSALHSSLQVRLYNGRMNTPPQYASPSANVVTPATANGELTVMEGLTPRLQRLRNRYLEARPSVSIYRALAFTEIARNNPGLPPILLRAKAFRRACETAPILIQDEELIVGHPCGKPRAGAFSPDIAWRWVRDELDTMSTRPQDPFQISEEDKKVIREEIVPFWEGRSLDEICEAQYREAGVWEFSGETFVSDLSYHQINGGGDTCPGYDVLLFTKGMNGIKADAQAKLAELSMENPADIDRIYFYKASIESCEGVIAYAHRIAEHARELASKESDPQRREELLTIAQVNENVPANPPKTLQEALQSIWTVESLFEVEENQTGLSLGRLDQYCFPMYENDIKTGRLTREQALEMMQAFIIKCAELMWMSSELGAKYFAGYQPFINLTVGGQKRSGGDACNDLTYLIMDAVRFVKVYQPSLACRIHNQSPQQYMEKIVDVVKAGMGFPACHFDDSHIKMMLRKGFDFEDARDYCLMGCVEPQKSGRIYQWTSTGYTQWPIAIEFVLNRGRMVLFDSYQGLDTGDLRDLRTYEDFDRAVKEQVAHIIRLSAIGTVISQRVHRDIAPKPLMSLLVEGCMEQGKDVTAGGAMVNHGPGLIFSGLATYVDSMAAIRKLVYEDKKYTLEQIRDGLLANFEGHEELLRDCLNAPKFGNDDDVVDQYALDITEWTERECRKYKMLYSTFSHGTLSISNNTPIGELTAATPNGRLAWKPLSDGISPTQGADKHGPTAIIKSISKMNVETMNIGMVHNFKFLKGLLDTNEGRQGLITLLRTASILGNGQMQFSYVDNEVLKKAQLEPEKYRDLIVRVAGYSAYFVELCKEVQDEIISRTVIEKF
Sequence (B4EYG0 entry or part of it, further chain): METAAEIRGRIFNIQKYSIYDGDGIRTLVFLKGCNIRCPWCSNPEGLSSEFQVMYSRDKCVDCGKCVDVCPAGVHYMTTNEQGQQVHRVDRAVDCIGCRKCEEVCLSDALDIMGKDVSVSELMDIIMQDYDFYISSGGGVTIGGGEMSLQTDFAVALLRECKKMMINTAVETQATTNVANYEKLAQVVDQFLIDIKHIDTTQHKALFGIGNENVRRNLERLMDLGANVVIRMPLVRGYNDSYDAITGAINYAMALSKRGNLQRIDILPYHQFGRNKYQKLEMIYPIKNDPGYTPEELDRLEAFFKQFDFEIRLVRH
assay-text: Cell-based assay for TMA production from a native producer (P. mirabilis)
measurement-setup: read-out: Average IC50 Whole cell P. mirabilis; d9-TMA from 1 mM d9-choline, 5 h, 37° C.; value 10 given when no fit or % TMA remaining at 10 μM higher than 15%

// known answers, use as guide
[
  {
    "molecular-string": "C#CC[N+](C)(C)CCP(=O)(OCC)OCC",
    "system-name": "CutC from Proteus mirabilis (Proteus mirabilis, UniProt B4EYG1)",
    "result": "0.242 µM"
  },
  {
    "molecular-string": "C[N+](C)(C)CCCP(=O)(O)O",
    "system-name": "CutC from Proteus mirabilis (Proteus mirabilis, UniProt B4EYG1)",
    "result": "≥ 10 µM"
  },
  {
    "molecular-string": "C[N+](C)(CCO)CCF",
    "system-name": "CutC from Proteus mirabilis (Proteus mirabilis, UniProt B4EYG1)",
    "result": "> 10 µM"
  },
  {
    "molecular-string": "C#CC[N+](C)(C)CC[PH](=O)O",
    "system-name": "CutC from Proteus mirabilis (Proteus mirabilis, UniProt B4EYG1)",
    "result": "> 10 µM"
  },
  {
    "molecular-string": "C#CC[N+](C)(C)CCP(=O)(O)O",
    "system-name": "CutC from Proteus mirabilis (Proteus mirabilis, UniProt B4EYG1)",
    "result": "> 10 µM"
  },
  {
    "molecular-string": "C[N+](C)(C)CCC[PH](=O)O",
    "system-name": "CutC from Proteus mirabilis (Proteus mirabilis, UniProt B4EYG1)",
    "result": "≥ 10 µM"
  },
  {
    "molecular-string": "C[N+](C)(CCO)CCCl",
    "system-name": "CutC from Proteus mirabilis (Proteus mirabilis, UniProt B4EYG1)",
    "result": "> 10 µM"
  }
]

Now consider the entry below.
Enquiry: Find the measured IC50 of "C[N+](C)(C)CCCl" and report it.
Return: > 10 µM
